Assay Text: In vivo kinetics experiment (radioactivity distribution)
Design: species or system Wistar male rat
Measurement Context: 60 min after administration; rat i.v.; mean ± SD
// boundary case: Radioactivity distribution Femur equal to 1 % ID/g maps to No; strictly smaller maps to Yes

Query :: Confirm or reject: Radioactivity distribution Femur of CC(C)n1c(-c2cncc(Cn3ccnc3)c2)nc2ccc([123I])cc21 [[^123I] 606] lies strictly below 1 % ID/g
Result :: Yes

Query :: Confirm or reject: Radioactivity distribution Femur of COc1cc([123I])cc2c1nc(-c1cncc(Cn3ccnc3)c1)n2C1CC1 [[^123I] 609] lies strictly below 1 % ID/g
Result :: Yes

Query :: Confirm or reject: Radioactivity distribution Femur of Cn1c(-c2cncc(Cn3ccnc3)c2)nc2ccc([123I])cc21 [[^123I] 607] lies strictly below 1 % ID/g
Result :: No

Query :: Confirm or reject: Radioactivity distribution Femur of CCn1c(-c2cncc(Cn3ccnc3)c2)nc2ccc([123I])cc21 [[^123I] 608] lies strictly below 1 % ID/g
Result :: No

Query :: Confirm or reject: Radioactivity distribution Femur of FCCn1c(-c2cncc(Cn3ccnc3)c2)nc2ccc([123I])cc21 [[^123I] 604] lies strictly below 1 % ID/g
Result :: Yes

Query :: Confirm or reject: Radioactivity distribution Femur of Fc1cc2nc(-c3cncc(Cn4ccnc4)c3)n(Cc3ccc([123I])cc3)c2cc1Cl [[^123I] 605] lies strictly below 1 % ID/g
Result :: Yes

Query :: Confirm or reject: Radioactivity distribution Femur of FCCn1c(-c2cncc(Cn3cncc3[123I])c2)nc2cc(F)c(Cl)cc21 [[^123I] 610] lies strictly below 1 % ID/g
Result :: No

###

Assay Text: In vivo kinetics experiment (radioactivity distribution)
Parameters: species or system Wistar male rat
Measurement Context: rat, caudal vein, 60 min after administration
Recorded Endpoint: Radioactivity distribution Large intestine
Give the number first and the unit second.

Query :: Please give the measured Radioactivity distribution Large intestine for this compound: Fc1cc2nc(-c3cncc(Cn4ccnc4)c3)n(CCC[18F])c2cc1Cl [[^18F] 500]
Result :: 0.41 ± 0.09 % ID/g

Query :: Please give the measured Radioactivity distribution Large intestine for this compound: FCCn1c(-c2cncc(Cn3ccnc3)c2)nc2cc(F)c([123I])cc21 [[^123I] 400]
Result :: 0.43 ± 0.19 % ID/g

Query :: Please give the measured Radioactivity distribution Large intestine for this compound: [123I]c1ccc2nc(-c3cncc(Cn4ccnc4)c3)n(C3CC3)c2c1 [[^123I] 602]
Result :: 0.43 ± 0.19 % ID/g

Query :: Please give the measured Radioactivity distribution Large intestine for this compound: Fc1cc2nc(-c3cncc(Cn4ccnc4)c3)n(CC[18F])c2cc1Cl [[^18F] 100]
Result :: 0.38 ± 0.22 % ID/g

Query :: Please give the measured Radioactivity distribution Large intestine for this compound: [123I]c1ccc2nc(-c3cncc(Cn4ccnn4)c3)n(C3CC3)c2c1 [[^123I] 603]
Result :: 0.55 ± 0.52 % ID/g

Query :: Please give the measured Radioactivity distribution Large intestine for this compound: Fc1cc2nc(-c3cncc(Cn4ccnc4)c3)n(CC[18F])c2cc1Br [[^18F] 200]
Result :: 0.41 ± 0.06 % ID/g

###

Assay Text: In vivo kinetics experiment (radioactivity distribution)
Set-up: species or system Wistar male rat
Measurement Context: rat, caudal vein, 10 min after administration
Recorded Endpoint: Radioactivity distribution Blood (% ID/g)
Write the number in % ID/g without appending the unit.

Query :: Please give the measured Radioactivity distribution Blood for this molecule: [123I]c1ccc2nc(-c3cncc(Cn4ccnc4)c3)n(C3CC3)c2c1 [[^123I] 602]
Result :: 0.32

Query :: Please give the measured Radioactivity distribution Blood for this molecule: Fc1cc2nc(-c3cncc(Cn4ccnc4)c3)n(CC[18F])c2cc1Cl [[^18F] 100]
Result :: 0.08

Query :: Please give the measured Radioactivity distribution Blood for this molecule: [123I]c1ccc2nc(-c3cncc(Cn4ccnn4)c3)n(C3CC3)c2c1 [[^123I] 603]
Result :: 0.13

Query :: Please give the measured Radioactivity distribution Blood for this molecule: Fc1cc2nc(-c3cncc(Cn4ccnc4)c3)n(CCC[18F])c2cc1Cl [[^18F] 500]
Result :: 0.12

Query :: Please give the measured Radioactivity distribution Blood for this molecule: FCCn1c(-c2cncc(Cn3ccnc3)c2)nc2cc(F)c([123I])cc21 [[^123I] 400]
Result :: 0.32

Query :: Please give the measured Radioactivity distribution Blood for this molecule: Fc1cc2nc(-c3cncc(Cn4ccnc4)c3)n(CC[18F])c2cc1Br [[^18F] 200]
Result :: 0.15
